Just for reference, ChEMBL document CHEMBL1150425 is where these values come from.

tested on: Human immunodeficiency virus 1; experiment: Antiviral activity against HIV1 in MT4 cells assessed as reduction of virus induced cytopathogenicity by MTT method; assay type: functional, organism-based; conditions: Human immunodeficiency virus 1, MT4
Binarize EC50 at 0.7 µM; below is true, at or above is false.

Observe how each entry below is paired with its result.
> print(dat)
                               given.smiles  classification
1  O=C1c2ccccc2C(=O)N1CCO/C(=N\c1ccc(I)cc1)SS/C(=N/c1ccc(I)cc1)OCCN1C(=O)c2ccccc2C1=O            true
2  O=C1c2ccccc2C(=O)N1CCO/C(=N\c1ccc([N+](=O)[O-])cc1)SS/C(=N/c1ccc([N+](=O)[O-])cc1)OCCN1C(=O)c2ccccc2C1=O            true
3  O=C1c2ccccc2C(=O)N1CCO/C(=N\c1ccc(Br)cc1)SS/C(=N/c1ccc(Br)cc1)OCCN1C(=O)c2ccccc2C1=O            true
4  O=C1c2ccccc2C(=O)N1CCO/C(=N\c1cccc(Cl)c1Cl)SS/C(=N/c1cccc(Cl)c1Cl)OCCN1C(=O)c2ccccc2C1=O           false

For the next question, use this molecule.
Ask | hey, is EC50 for `O=C1c2ccccc2C(=O)N1CCO/C(=N\c1ccc(C(F)(F)F)cc1)SS/C(=N/c1ccc(C(F)(F)F)cc1)OCCN1C(=O)c2ccccc2C1=O` lower than 0.7 µM or not?
Reply | true
